Experiment: in vivo
Details: rat, in vivo
Excerpt: All NSAIDs are inhibitors of CO and their potency against this enzyme activity correlates well with clinical doses used in rheumatic diseases. There is also a correlation between CO inhibition (decreased PGE2) and the ability to induce gastric lesions in the fasted rat model. All NSAIDs induce at least some gastrointestinal lesions within their therapeutic range.
Measured metric: selectivity ratio

[[record]]
smiles_string = "COc1ccc(-n2nc(CCC(=O)N(C)O)cc2-c2ccc(Cl)cc2)cc1"
value = 58


---

Assay: in vivo
Settings: rat, in vivo
Source text: All NSAIDs are inhibitors of CO and their potency against this enzyme activity correlates well with clinical doses used in rheumatic diseases. There is also a correlation between CO inhibition (decreased PGE2) and the ability to induce gastric lesions in the fasted rat model. All NSAIDs induce at least some gastrointestinal lesions within their therapeutic range.
Measured metric: TD50 (mg/kg)

[[record]]
smiles_string = "COc1ccc(-n2nc(CCC(=O)N(C)O)cc2-c2ccc(Cl)cc2)cc1"
value = 173

